Source listed as ChEMBL document CHEMBL1125252.

system: MT4; experiment: Cytotoxic concentration required to reduce the viability of mock-infected MT-4 cells by 50%.; format: functional; details: Homo sapiens
Attribute: CC50
# number only, unit µM dropped from output

Please review the entries below; each comes with its answer.
COMPOUND	TARGET UNDER TEST	CC50 (µM)
CCN1Cc2cccc3nc(O)n(c23)CC1C (stereo unspecified)	MT4	592
C=C(CC)CN1Cc2cccc3nc(O)n(c23)CC1C (stereo unspecified)	MT4	66
CC(C)OCCN1Cc2cccc3nc(O)n(c23)CC1C (stereo unspecified)	MT4	504
C#CCN1Cc2cccc3nc(O)n(c23)CC1C (stereo unspecified)	MT4	990
CC(=O)CN1Cc2cccc3nc(O)n(c23)CC1C (stereo unspecified)	MT4	760

Task item: GET /values?readout=CC50&item= C/C=C\CN1Cc2cccc3nc(O)n(c23)CC1C (stereo unspecified)
Reply: 560

Task item: GET /values?readout=CC50&item= CC1Cn2c(O)nc3cccc(c32)CN1CC#N (stereo unspecified)
Reply: 508

Task item: GET /values?readout=CC50&item= CC(C)CN1Cc2cccc3nc(O)n(c23)CC1C (stereo unspecified)
Reply: 82

Task item: GET /values?readout=CC50&item= C=C(CN1Cc2cccc3nc(O)n(c23)CC1C)C(=O)OCC (stereo unspecified)
Reply: 3

Task item: GET /values?readout=CC50&item= CC1Cn2c(O)nc3cccc(c32)CN1CC1=CCCCC1 (stereo unspecified)
Reply: 212

Task item: GET /values?readout=CC50&item= C#CC(C)=CCN1Cc2cccc3nc(O)n(c23)CC1C (stereo unspecified)
Reply: 707
